Test system: MDA-MB-231
experiment-description: NCI tumour cell line growth inhibition, 48 h
The source made the active and inactive calls. Rule as the data show it: active = GI50 up to about 1.1 µM and inactive = higher.
readout-name: GI50

Check out these entries, answers already filled in.
[[record]]
compound = "CC(C)(C)OC(=O)c1cnc(Cl)cn1"
obs_value = "46.1 µM (inactive)"

[[record]]
compound = "C/C(N)=C/C(=O)c1[nH]c(C(=O)O)cc1C1CCN(Cc2ccccc2)C1=O (stereo not drawn)"
obs_value = "41.1 µM (inactive)"


Short answer for `Nc1ncnc2c1ccn2CC#CCO` : GI50 was > 100 µM (inactive)

====

Tested on: OVCAR-5
experiment-description: NCI tumour cell line growth inhibition, 48 h
The source made the active and inactive calls. Rule as the data show it: active = GI50 up to about 1.1 µM and inactive = higher.
readout-name: GI50

[[record]]
smiles = "CC(C)CN(CC#N)CC(C)C"
readout_name = "GI50"
obs_value = "> 100 µM (inactive)"

[[record]]
smiles = "Cc1ccccc1NC(=O)C(=O)CC(=O)c1sc(-n2nc(-c3ccccc3)cc2-c2ccccc2)nc1C"
readout_name = "GI50"
obs_value = "> 100 µM (inactive)"

[[record]]
smiles = "CCCCN/C(=N\\C#N)N(Cc1ccccc1)Cc1ccccc1"
readout_name = "GI50"
obs_value = "23.5 µM (inactive)"


Please report GI50 for every entry that follows.
1. COc1ccc2c(c1)[C@@H]1c3cc(OC)c(OC)cc3CCN1CCC2
2. COC(=O)/C=C\C(C#N)(C#N)/N=C/c1ccc(OC)cc1
3. N#CC(=C1CCN(CCCC(=O)c2ccc(F)cc2)CC1)c1ccccc1

1. > 100 µM (inactive)
2. 21.7 µM (inactive)
3. > 100 µM (inactive)

====

Test system: SNB-19
experiment-description: NCI tumour cell line growth inhibition, 48 h
Calls of active or inactive are those of the source. Rule as the data show it: active = GI50 up to about 1.1 µM and inactive = higher.
Exercise: state measured GI50 for each of the molecules provided.

[[record]]
molecule = "O=C(N/N=C/c1cccc(F)c1)c1ccncc1"
tested_system = "SNB-19"
obs_value = "> 100 µM (inactive)"

[[record]]
molecule = "C/C(N)=C/C(=O)c1[nH]c(C(=O)O)cc1C1CCN(Cc2ccccc2)C1=O (stereo unspecified)"
tested_system = "SNB-19"
obs_value = "33.4 µM (inactive)"

[[record]]
molecule = "Clc1ccc2c(SCC3CO3)c3ccccc3nc2c1 (stereo unspecified)"
tested_system = "SNB-19"
obs_value = "5.43 µM (inactive)"

[[record]]
molecule = "O=C(O)C1C(C(=O)O)C(C(=O)O)C1C(=O)O (stereo unspecified)"
tested_system = "SNB-19"
obs_value = "> 100 µM (inactive)"

[[record]]
molecule = "CCOC(=O)c1cn2c(ccc3sc4ccccc4c(=O)c32)n1"
tested_system = "SNB-19"
obs_value = "> 100 µM (inactive)"


Turning to the following molecule.
Record for `CC(=O)O[C@H]1C(=O)[C@@]2(C)[C@H]([C@H](OC(=O)c3ccccc3)[C@]3(O)C[C@H](OC(=O)[C@H](O)[C@@H](NC(=O)c4ccccc4)c4ccccc4C)C(C)=C1C3(C)C)[C@]1(OC(C)=O)CO[C@@H]1C[C@@H]2O` under target or system SNB-19: GI50 reported as 1.27 µM (inactive)

====

Tested on: DU-145
experiment-description: NCI tumour cell line growth inhibition, 48 h
The source made the active and inactive calls. Rule as the data show it: active = GI50 up to about 1.1 µM and inactive = higher.
readout-name: GI50

Please report GI50 for every entry that follows.
1. [O-][S+]1CC[S+]([O-])CC[S+]([O-])CC1 (centres undefined)
2. Nc1nc2c(c(=O)[nH]1)C(c1ccccc1)CC(=O)N2 (centres undefined)
3. COc1ccc(/N=C2\C(=S)N(c3ccc(OC)cc3)/C(=N/S(=O)(=O)c3ccccc3)N2c2ccccc2)cc1

["> 100 µM (inactive)", "> 100 µM (inactive)", "22.1 µM (inactive)"]

Please report GI50 for every entry that follows.
1. O=C(O)[C@@H]1CCS(=O)(=O)N1
2. COCOC1C=CCCCC2=CC(C)=C(CC1)O2 (centres undefined)
3. c1ccc(CNCCCNCCCCNCCCNCc2ccccc2)cc1
4. CC(=O)OC[C@H]1CN(OC(C)=O)C[C@@H](n2cc(C)c(=O)[nH]c2=O)O1
5. O=S(=O)(O)c1ccc(-c2c3nc(c(-c4ccc(S(=O)(=O)O)cc4)c4ccc([nH]4)c(-c4ccc(S(=O)(=O)O)cc4)c4nc(c(-c5ccc(S(=O)(=O)O)cc5)c5ccc2[nH]5)C=C4)C=C3)cc1
6. Cc1ccc(/N=c2/oc3c(ccc4ccccc43)nc2Nc2ccc(C)cc2)cc1

1. > 100 µM (inactive)
2. > 100 µM (inactive)
3. 12.8 µM (inactive)
4. > 100 µM (inactive)
5. 39.1 µM (inactive)
6. > 100 µM (inactive)

Hey, just so you know, these numbers are from ChEMBL document CHEMBL1201862.
